- ASSAYED TARGET: recombinant human DPP8 (Homo sapiens, UniProt Q6V1X1)
- Construct: purchased PBS Bioscience
- Sequence (Q6V1X1 whole entry): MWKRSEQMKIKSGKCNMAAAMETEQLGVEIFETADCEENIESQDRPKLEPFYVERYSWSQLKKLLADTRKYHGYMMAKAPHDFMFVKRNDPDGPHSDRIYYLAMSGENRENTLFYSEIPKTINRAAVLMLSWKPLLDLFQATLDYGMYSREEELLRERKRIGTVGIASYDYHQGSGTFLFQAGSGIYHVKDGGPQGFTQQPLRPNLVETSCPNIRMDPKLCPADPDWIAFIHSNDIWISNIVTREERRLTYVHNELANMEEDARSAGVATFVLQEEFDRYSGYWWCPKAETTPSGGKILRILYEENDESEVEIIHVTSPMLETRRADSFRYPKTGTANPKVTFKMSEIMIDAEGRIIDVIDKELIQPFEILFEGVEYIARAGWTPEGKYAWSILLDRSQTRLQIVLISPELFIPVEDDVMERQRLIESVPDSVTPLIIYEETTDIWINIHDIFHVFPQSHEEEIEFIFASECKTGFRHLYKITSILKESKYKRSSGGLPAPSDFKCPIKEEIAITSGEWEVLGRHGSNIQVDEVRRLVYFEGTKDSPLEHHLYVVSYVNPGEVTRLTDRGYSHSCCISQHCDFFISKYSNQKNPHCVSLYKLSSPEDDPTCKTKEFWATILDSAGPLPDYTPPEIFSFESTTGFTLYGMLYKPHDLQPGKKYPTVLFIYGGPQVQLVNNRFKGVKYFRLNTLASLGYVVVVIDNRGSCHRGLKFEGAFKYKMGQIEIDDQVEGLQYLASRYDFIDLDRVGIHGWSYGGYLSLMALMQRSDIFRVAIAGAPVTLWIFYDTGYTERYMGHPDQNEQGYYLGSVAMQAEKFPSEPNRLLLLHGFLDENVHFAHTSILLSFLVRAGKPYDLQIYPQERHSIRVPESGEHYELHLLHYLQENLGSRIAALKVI
- ASSAY METHOD TEXT: DPP8 inhibition, fluorogenic substrate Z-Ala-Pro-AMC
- Assay type: biochemical
- MEASUREMENT SETUP: 25° C., Z-Ala-Pro-AMC substrate
Quick reference: IC50 of the listed items.

SMILES STRING: N#C[C@@H]1CC(F)(F)CN1C(=O)CN1CC[C@H](Oc2ccnc3cc(Cl)ccc23)C1
ASSAYED TARGET: recombinant human DPP8 (Homo sapiens, UniProt Q6V1X1)
IC50: 9.89 µM

SMILES STRING: N#C[C@@H]1CCCN1C(=O)CN1CC[C@H](NC(=O)c2coc3cccc(O)c23)C1
ASSAYED TARGET: recombinant human DPP8 (Homo sapiens, UniProt Q6V1X1)
IC50: 12 µM

SMILES STRING: N#C[C@@H]1CC(F)(F)CN1C(=O)CN1CC[C@H](Oc2cccc3ncccc23)C1
ASSAYED TARGET: recombinant human DPP8 (Homo sapiens, UniProt Q6V1X1)
IC50: 11.8 µM

SMILES STRING: COc1ccc2c(OC3CCN(CC(=O)N4C[C@@H](F)C[C@H]4C#N)CC3)ccnc2c1
ASSAYED TARGET: recombinant human DPP8 (Homo sapiens, UniProt Q6V1X1)
IC50: 9.84 µM

SMILES STRING: N#C[C@@H]1C[C@H](F)CN1C(=O)CN1CCC(Oc2ccnc3ccc(Cl)cc23)CC1
ASSAYED TARGET: recombinant human DPP8 (Homo sapiens, UniProt Q6V1X1)
IC50: 8.73 µM

###

pIC50 listing for selected compounds.
- ASSAYED TARGET: UniProt P27487
- Sequence (P27487 whole entry): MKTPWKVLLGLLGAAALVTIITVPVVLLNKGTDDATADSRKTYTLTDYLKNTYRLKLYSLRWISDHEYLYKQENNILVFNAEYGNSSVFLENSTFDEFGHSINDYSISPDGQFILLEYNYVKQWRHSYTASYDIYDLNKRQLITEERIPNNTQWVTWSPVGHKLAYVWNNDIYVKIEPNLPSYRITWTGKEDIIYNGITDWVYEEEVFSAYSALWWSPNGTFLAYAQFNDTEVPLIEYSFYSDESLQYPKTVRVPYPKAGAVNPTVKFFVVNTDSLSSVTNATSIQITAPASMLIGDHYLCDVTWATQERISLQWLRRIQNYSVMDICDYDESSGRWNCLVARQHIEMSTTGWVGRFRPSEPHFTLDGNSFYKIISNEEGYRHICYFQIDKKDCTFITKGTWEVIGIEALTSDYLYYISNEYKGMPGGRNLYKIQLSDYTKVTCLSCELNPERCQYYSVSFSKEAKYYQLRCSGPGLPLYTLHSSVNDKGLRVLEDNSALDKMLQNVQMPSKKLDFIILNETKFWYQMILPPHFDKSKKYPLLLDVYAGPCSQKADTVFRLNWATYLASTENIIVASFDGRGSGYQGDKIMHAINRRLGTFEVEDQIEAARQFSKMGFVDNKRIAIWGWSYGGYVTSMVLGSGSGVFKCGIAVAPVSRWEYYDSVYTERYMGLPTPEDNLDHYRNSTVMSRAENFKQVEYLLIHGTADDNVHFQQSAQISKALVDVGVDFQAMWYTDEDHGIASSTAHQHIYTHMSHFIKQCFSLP
- ASSAY METHOD TEXT: DPP4 inhibition, fluorogenic substrate H-Gly-Pro-AMC
- Format: biochemical
- Design: purchased R&D Systems
- MEASUREMENT SETUP: recombinant human DPP4
pIC50: −log10 of the molar value.
READOUT LABEL: pIC50

COMPOUND: COc1ccc2ncc(N(C)C3CCN(CC(=O)N4CCC[C@H]4C#N)CC3)cc2c1 [Example 323]
OBSERVED VALUE: ≤ 4.00
//
COMPOUND: COc1ccc2cc(NC3CCN(CC(=O)N4C[C@@H](F)C[C@H]4C#N)CC3)cnc2c1 [Example 366]
OBSERVED VALUE: ≤ 5.00
//
COMPOUND: CN(c1ccnc2ccccc12)C1CCN(CC(=O)N2CCC[C@H]2C#N)CC1 [Example 308]
OBSERVED VALUE: < 5.00

###

- ASSAYED TARGET: recombinant human DPP8 (Homo sapiens)
- Construct: purchased PBS Bioscience
- ASSAY METHOD TEXT: DPP8 inhibition, fluorogenic substrate Z-Ala-Pro-AMC
- Format: biochemical
- MEASUREMENT SETUP: recombinant human DPP8
- Method: The compounds according to the present technology were evaluated in terms of the inhibitory effect on the activity of dipeptidyl peptidases including FAP by using a substrate producing fluorescent substances upon enzymatic decomposition. […] Fluorescence intensity was measured using a microplate reader (Flexstation3, Molecular Devices) under the wavelength condition exciting at 380 nm and reading the emission at 460 nm. […]

COMPOUND: Cc1cccc2c(NC3CCN(CC(=O)N4CCC[C@H]4C#N)CC3)nc(Cl)nc12 [Example 359]
ASSAYED TARGET: recombinant human DPP8 (Homo sapiens)
COMPARATIVE SIGN: =
IC50 [µM]: 8.22

COMPOUND: N#C[C@@H]1C[C@H](F)CN1C(=O)CN1CC[C@H](Nc2cccc3ncccc23)C1 [Example 228]
ASSAYED TARGET: recombinant human DPP8 (Homo sapiens)
COMPARATIVE SIGN: =
IC50 [µM]: 10.8

COMPOUND: CN(c1ccc(F)c2ncccc12)[C@H]1CCN(CC(=O)N2C[C@@H](F)C[C@H]2C#N)C1 [Example 158]
ASSAYED TARGET: recombinant human DPP8 (Homo sapiens)
COMPARATIVE SIGN: =
IC50 [µM]: 8.62

COMPOUND: N#C[C@@H]1C[C@H](F)CN1C(=O)CN1CC[C@@H](Nc2cnc3ccccc3c2)C1 [Example 165]
ASSAYED TARGET: recombinant human DPP8 (Homo sapiens)
COMPARATIVE SIGN: ≥
IC50 [µM]: 100

COMPOUND: N#Cc1cccc2c(OC3CCN(CC(=O)N4C[C@@H](F)C[C@H]4C#N)CC3)ccnc12 [Example 434]
ASSAYED TARGET: recombinant human DPP8 (Homo sapiens)
COMPARATIVE SIGN: =
IC50 [µM]: 2.74

COMPOUND: N#C[C@@H]1C[C@H](F)CN1C(=O)CN1CCC(Oc2ccnc3cc(F)ccc23)CC1 [Example 433]
ASSAYED TARGET: recombinant human DPP8 (Homo sapiens)
COMPARATIVE SIGN: =
IC50 [µM]: 3.06

###

- ASSAYED TARGET: recombinant human DPP9 (Homo sapiens)
- Construct: purchased R&D Systems
- ASSAY METHOD TEXT: DPP9 inhibition, fluorogenic substrate H-Gly-Pro-AMC
- Type: biochemical
- MEASUREMENT SETUP: recombinant human DPP9
READOUT LABEL: IC50 (µM)

SMILES STRING: N#C[C@@H]1CCCN1C(=O)CN1CCC(Nc2ccc(C(=O)Nc3ccccc3)c3ncccc23)CC1
OBSERVED VALUE: 7.42
--
SMILES STRING: N#C[C@@H]1C[C@H](F)CN1C(=O)CN1CCC(Nc2cccc3cnc(Cl)cc23)CC1
OBSERVED VALUE: 9.77
--
SMILES STRING: N#C[C@@H]1C[C@H](F)CN1C(=O)CN1CC[C@H](Nc2c(F)ccc3ncccc23)C1
OBSERVED VALUE: 9.42

###

- ASSAYED TARGET: recombinant human DPP9 (Homo sapiens, UniProt Q86TI2)
- Construct: purchased R&D Systems
- Sequence (Q86TI2 whole entry): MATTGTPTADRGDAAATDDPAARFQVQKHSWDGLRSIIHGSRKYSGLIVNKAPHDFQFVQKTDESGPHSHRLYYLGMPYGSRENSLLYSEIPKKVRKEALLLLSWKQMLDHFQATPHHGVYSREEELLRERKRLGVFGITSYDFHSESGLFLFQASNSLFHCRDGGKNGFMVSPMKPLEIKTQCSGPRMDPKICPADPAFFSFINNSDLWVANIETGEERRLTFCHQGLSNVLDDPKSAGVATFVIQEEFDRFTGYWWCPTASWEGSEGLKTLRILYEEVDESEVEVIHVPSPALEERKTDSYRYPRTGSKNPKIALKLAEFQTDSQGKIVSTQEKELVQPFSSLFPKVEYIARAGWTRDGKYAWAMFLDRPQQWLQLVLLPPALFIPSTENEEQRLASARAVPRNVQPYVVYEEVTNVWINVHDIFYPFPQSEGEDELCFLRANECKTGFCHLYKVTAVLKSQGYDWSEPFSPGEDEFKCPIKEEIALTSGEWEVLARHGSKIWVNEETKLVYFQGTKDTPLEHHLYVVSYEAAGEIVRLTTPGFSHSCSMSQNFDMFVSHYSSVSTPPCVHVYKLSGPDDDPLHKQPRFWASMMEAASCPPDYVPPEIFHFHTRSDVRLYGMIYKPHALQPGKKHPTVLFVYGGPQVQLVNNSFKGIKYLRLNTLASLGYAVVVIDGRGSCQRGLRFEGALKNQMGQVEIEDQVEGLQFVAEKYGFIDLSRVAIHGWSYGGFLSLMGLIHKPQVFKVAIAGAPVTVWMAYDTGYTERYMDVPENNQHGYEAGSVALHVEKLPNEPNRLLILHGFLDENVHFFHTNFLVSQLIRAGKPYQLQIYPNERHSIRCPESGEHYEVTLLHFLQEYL
- ASSAY METHOD TEXT: DPP9 inhibition, fluorogenic substrate H-Gly-Pro-AMC
- Format: biochemical
- MEASUREMENT SETUP: recombinant human DPP9
- Experimental: The compounds according to the present technology were evaluated in terms of the inhibitory effect on the activity of dipeptidyl peptidases including FAP by using a substrate producing fluorescent substances upon enzymatic decomposition. […] Fluorescence intensity was measured using a microplate reader (Flexstation3, Molecular Devices) under the wavelength condition exciting at 380 nm and reading the emission at 460 nm. […]
In plain terms, low IC50, meaning strictly below 5 µM, gives Criterion met, and everything else gives Criterion not met.

COMPOUND: N#C[C@@H]1CCCN1C(=O)CN1CCC(NC(=O)c2cccc3cccnc23)CC1 [Example 301]
ASSAYED TARGET: recombinant human DPP9 (Homo sapiens, UniProt Q86TI2)
CLASSIFICATION: Criterion not met
--
COMPOUND: N#C[C@@H]1C[C@H](F)CN1C(=O)CN1CCC(Oc2cc(C(F)(F)F)nc3ccccc23)CC1 [Example 412]
ASSAYED TARGET: recombinant human DPP9 (Homo sapiens, UniProt Q86TI2)
CLASSIFICATION: Criterion not met
--
COMPOUND: COc1cc(N[C@@H]2CCN(CC(=O)N3C[C@@H](F)C[C@H]3C#N)C2)c2cccnc2c1 [Example 177]
ASSAYED TARGET: recombinant human DPP9 (Homo sapiens, UniProt Q86TI2)
CLASSIFICATION: Criterion met
--
COMPOUND: N#Cc1cnc2cccc(N[C@H]3CCN(CC(=O)N4CCC[C@H]4C#N)C3)c2c1 [Example 232]
ASSAYED TARGET: recombinant human DPP9 (Homo sapiens, UniProt Q86TI2)
CLASSIFICATION: Criterion not met
--
COMPOUND: N#C[C@@H]1C[C@H](F)CN1C(=O)CN1CC[C@@H](Nc2ccc(OC(F)(F)F)c3ncccc23)C1 [Example 186]
ASSAYED TARGET: recombinant human DPP9 (Homo sapiens, UniProt Q86TI2)
CLASSIFICATION: Criterion met
--
COMPOUND: N#C[C@@H]1C[C@H](F)CN1C(=O)CN1CC[C@H](Nc2cc(C(F)(F)F)cc3ncccc23)C1 [Example 258]
ASSAYED TARGET: recombinant human DPP9 (Homo sapiens, UniProt Q86TI2)
CLASSIFICATION: Criterion not met
--
COMPOUND: N#C[C@@H]1C[C@H](F)CN1C(=O)CN1CCC(Oc2cc(C(F)(F)F)nc3ccc(F)cc23)CC1 [Example 413]
ASSAYED TARGET: recombinant human DPP9 (Homo sapiens, UniProt Q86TI2)
CLASSIFICATION: Criterion not met
--
COMPOUND: Cc1cnc2cccc(N[C@@H]3CCN(CC(=O)N4C[C@@H](F)C[C@H]4C#N)C3)c2c1 [Example 179]
ASSAYED TARGET: recombinant human DPP9 (Homo sapiens, UniProt Q86TI2)
CLASSIFICATION: Criterion met
--
COMPOUND: N#C[C@@H]1C[C@H](F)CN1C(=O)CN1CC[C@@H](Nc2cccc3ncc(Cl)cc23)C1 [Example 185]
ASSAYED TARGET: recombinant human DPP9 (Homo sapiens, UniProt Q86TI2)
CLASSIFICATION: Criterion met
--
COMPOUND: COc1cc2nccc(O[C@H]3CCN(CC(=O)N4C[C@@H](F)C[C@H]4C#N)C3)c2cc1OC [Example 300]
ASSAYED TARGET: recombinant human DPP9 (Homo sapiens, UniProt Q86TI2)
CLASSIFICATION: Criterion not met
--
COMPOUND: CN(c1ccc2cccnc2c1)C1CCN(CC(=O)N2CCC[C@H]2C#N)CC1 [Example 311]
ASSAYED TARGET: recombinant human DPP9 (Homo sapiens, UniProt Q86TI2)
CLASSIFICATION: Criterion not met
--
COMPOUND: COc1cc2nc(Cl)nc(NC3CCN(CC(=O)N4CCC[C@H]4C#N)CC3)c2cc1OC [Example 358]
ASSAYED TARGET: recombinant human DPP9 (Homo sapiens, UniProt Q86TI2)
CLASSIFICATION: Criterion not met
--
COMPOUND: N#C[C@@H]1C[C@H](F)CN1C(=O)CN1CC[C@@H](Nc2cnc3nc(Cl)ccc3c2)C1 [Example 172]
ASSAYED TARGET: recombinant human DPP9 (Homo sapiens, UniProt Q86TI2)
CLASSIFICATION: Criterion not met
--
COMPOUND: N#C[C@@H]1C[C@H](F)CN1C(=O)CN1CC[C@H](Nc2cccc3ncccc23)C1 [Example 228]
ASSAYED TARGET: recombinant human DPP9 (Homo sapiens, UniProt Q86TI2)
CLASSIFICATION: Criterion not met
--
COMPOUND: Cc1cnc2cccc(N(C)[C@H]3CCN(CC(=O)N4C[C@@H](F)C[C@H]4C#N)C3)c2c1 [Example 155]
ASSAYED TARGET: recombinant human DPP9 (Homo sapiens, UniProt Q86TI2)
CLASSIFICATION: Criterion not met
--
COMPOUND: N#C[C@@H]1CCCN1C(=O)CN1CC[C@H](Nc2ccc(F)c3ncccc23)C1 [Example 244]
ASSAYED TARGET: recombinant human DPP9 (Homo sapiens, UniProt Q86TI2)
CLASSIFICATION: Criterion not met
--
COMPOUND: COc1cnc2cccc(N[C@@H]3CCN(CC(=O)N4CCC[C@H]4C#N)C3)c2c1 [Example 204]
ASSAYED TARGET: recombinant human DPP9 (Homo sapiens, UniProt Q86TI2)
CLASSIFICATION: Criterion not met
--
COMPOUND: N#C[C@@H]1C[C@H](F)CN1C(=O)CN1CC[C@@H](Nc2cc(F)cc3ncccc23)C1 [Example 174]
ASSAYED TARGET: recombinant human DPP9 (Homo sapiens, UniProt Q86TI2)
CLASSIFICATION: Criterion met
